- TEST: Phase 1 relative bioavailability study part 2: plasma pharmacokinetics of fedratinib (3-period crossover)
- Assay type: in vivo, human
- EXPERIMENTAL CONTEXT: human, plasma, other: nasogastric tube, 400 mg, Treatment 2B: single 400 mg via nasogastric tube, dispersed in nutritional supplement; n = 30; read-out: Cmax, geometric mean (statistical analysis)
RECORDED METRIC: Cmax (ng/mL)
The response must be a number in ng/mL with no trailing unit.

Asked: Param item = `Cc1cnc(Nc2ccc(OCCN3CCCC3)cc2)nc1Nc1cccc(S(=O)(=O)NC(C)(C)C)c1` ; retrieve measured Cmax.
Given back: 1250

---

- TEST: Phase 1 relative bioavailability study part 1: plasma pharmacokinetics of fedratinib (2-period crossover)
- Format: in vivo, human
- EXPERIMENTAL CONTEXT: human, plasma, po, 400 mg, Treatment 1A: single 400 mg oral, intact capsules with nutritional supplement; n = 27; read-out: Cmax, geometric mean (statistical analysis)
RECORDED METRIC: Cmax (ng/mL)
The response must be a number in ng/mL with no trailing unit.

Asked: Param item = Cc1cnc(Nc2ccc(OCCN3CCCC3)cc2)nc1Nc1cccc(S(=O)(=O)NC(C)(C)C)c1 [fedratinib] ; retrieve measured Cmax.
Given back: 1350

---

- TEST: Phase 1 relative bioavailability study part 2: plasma pharmacokinetics of fedratinib (3-period crossover)
- Type: in vivo, human
- EXPERIMENTAL CONTEXT: human, plasma, po, 400 mg, Treatment 2A: single 400 mg oral, intact capsules with nutritional supplement; n = 30; read-out: Tmax, median (statistical analysis)
RECORDED METRIC: Tmax (h)
The response must be a number in h with no trailing unit.

Asked: Param item = `Cc1cnc(Nc2ccc(OCCN3CCCC3)cc2)nc1Nc1cccc(S(=O)(=O)NC(C)(C)C)c1` ; retrieve measured Tmax.
Given back: 2.67

---

- TEST: Phase 1 relative bioavailability study part 2: plasma pharmacokinetics of fedratinib (3-period crossover)
- Assay type: in vivo, human
- EXPERIMENTAL CONTEXT: human, plasma, other: nasogastric tube, 400 mg, Treatment 2B: single 400 mg via nasogastric tube, capsule contents dispersed in nutritional supplement; n = 30; read-out: Tmax, median (range)
RECORDED METRIC: Tmax (h)
The response must be a number in h with no trailing unit.

Asked: Param item = `Cc1cnc(Nc2ccc(OCCN3CCCC3)cc2)nc1Nc1cccc(S(=O)(=O)NC(C)(C)C)c1` ; retrieve measured Tmax.
Given back: 1.9

---

- TEST: Phase 1 relative bioavailability study part 2: plasma pharmacokinetics of fedratinib (3-period crossover)
- Format: in vivo, human
- EXPERIMENTAL CONTEXT: human, plasma, other: nasogastric tube, 400 mg, Treatment 2B: single 400 mg via nasogastric tube, dispersed in nutritional supplement; n = 30; read-out: AUC0–∞, geometric mean (statistical analysis)
RECORDED METRIC: AUC(0-inf) (ng·h/mL)
The response must be a number in ng·h/mL with no trailing unit.

Asked: Param item = `Cc1cnc(Nc2ccc(OCCN3CCCC3)cc2)nc1Nc1cccc(S(=O)(=O)NC(C)(C)C)c1` ; retrieve measured AUC(0-inf).
Given back: 21600

---

- TEST: Phase 1 relative bioavailability study part 2: plasma pharmacokinetics of fedratinib (3-period crossover)
- Type: in vivo, human
- EXPERIMENTAL CONTEXT: human, plasma, po, 400 mg, Treatment 2A: single 400 mg oral, intact capsules with nutritional supplement; n = 30; read-out: AUC0–t, geometric mean (statistical analysis)
RECORDED METRIC: AUC(0-t) (ng·h/mL)
The response must be a number in ng·h/mL with no trailing unit.

Asked: Param item = `Cc1cnc(Nc2ccc(OCCN3CCCC3)cc2)nc1Nc1cccc(S(=O)(=O)NC(C)(C)C)c1` ; retrieve measured AUC(0-t).
Given back: 22600

---

- TEST: Phase 1 relative bioavailability study part 2: plasma pharmacokinetics of fedratinib (3-period crossover)
- Format: in vivo, human
- EXPERIMENTAL CONTEXT: human, plasma, po, 400 mg, Treatment 2C: 400 mg oral divided dose (2 × 100-mg capsules BID) with nutritional supplement; after the first dose; n = 30; read-out: Cmax, geometric mean (Geo. %CV)
RECORDED METRIC: Cmax

Asked: Param item = Cc1cnc(Nc2ccc(OCCN3CCCC3)cc2)nc1Nc1cccc(S(=O)(=O)NC(C)(C)C)c1 [fedratinib] ; retrieve measured Cmax.
Given back: 0.641 µg/mL

---

- TEST: Phase 1 relative bioavailability study part 2: plasma pharmacokinetics of fedratinib (3-period crossover)
- Type: in vivo, human
- EXPERIMENTAL CONTEXT: human, plasma, po, 400 mg, Treatment 2C: 400 mg oral divided dose (2 × 100-mg capsules BID) with nutritional supplement; after the first dose; n = 30; read-out: Tmax, median (range)
RECORDED METRIC: Tmax (h)
The response must be a number in h with no trailing unit.

Asked: Param item = Cc1cnc(Nc2ccc(OCCN3CCCC3)cc2)nc1Nc1cccc(S(=O)(=O)NC(C)(C)C)c1 [fedratinib] ; retrieve measured Tmax.
Given back: 1.9

---

- TEST: Phase 1 relative bioavailability study part 2: plasma pharmacokinetics of fedratinib (3-period crossover)
- Type: in vivo, human
- EXPERIMENTAL CONTEXT: human, plasma, po, 400 mg, Treatment 2A: single 400 mg oral, 4 × 100-mg intact capsules with nutritional supplement; n = 30; read-out: t½, mean (SD) (converted)
RECORDED METRIC: half-life (h)
The response must be a number in h with no trailing unit.

Asked: Param item = Cc1cnc(Nc2ccc(OCCN3CCCC3)cc2)nc1Nc1cccc(S(=O)(=O)NC(C)(C)C)c1 [fedratinib] ; retrieve measured half-life.
Given back: 96.8

---

- TEST: Phase 1 relative bioavailability study part 2: plasma pharmacokinetics of fedratinib (3-period crossover)
- Type: in vivo, human
- EXPERIMENTAL CONTEXT: human, plasma, other: nasogastric tube, 400 mg, Treatment 2B: single 400 mg via nasogastric tube, capsule contents dispersed in nutritional supplement; n = 30; read-out: AUC0–t, geometric mean (Geo. %CV)
RECORDED METRIC: AUC(0-t) (ng·h/mL)
The response must be a number in ng·h/mL with no trailing unit.

Asked: Param item = `Cc1cnc(Nc2ccc(OCCN3CCCC3)cc2)nc1Nc1cccc(S(=O)(=O)NC(C)(C)C)c1` ; retrieve measured AUC(0-t).
Given back: 19200

---

- TEST: Phase 1 relative bioavailability study part 2: plasma pharmacokinetics of fedratinib (3-period crossover)
- Format: in vivo, human
- EXPERIMENTAL CONTEXT: human, plasma, oral, 400 mg, Treatment 2C: 400 mg divided dose (2 × 100-mg capsules BID); n = 30; read-out: AUC0–∞, geometric mean (statistical analysis)
RECORDED METRIC: AUC(0-inf) (ng·h/mL)
The response must be a number in ng·h/mL with no trailing unit.

Asked: Param item = `Cc1cnc(Nc2ccc(OCCN3CCCC3)cc2)nc1Nc1cccc(S(=O)(=O)NC(C)(C)C)c1` ; retrieve measured AUC(0-inf).
Given back: 21300

---

- TEST: Phase 1 relative bioavailability study part 1: plasma pharmacokinetics of fedratinib (2-period crossover)
- Format: in vivo, human
- EXPERIMENTAL CONTEXT: human, plasma, po, 400 mg, Treatment 1B: single 400 mg oral, capsule contents dispersed in nutritional supplement; n = 26; read-out: AUC0–∞, geometric mean (Geo. %CV)
RECORDED METRIC: AUC(0-inf)

Asked: Param item = `Cc1cnc(Nc2ccc(OCCN3CCCC3)cc2)nc1Nc1cccc(S(=O)(=O)NC(C)(C)C)c1` ; retrieve measured AUC(0-inf).
Given back: 22700 ng·h/mL

---

- TEST: Phase 1 relative bioavailability study part 1: plasma pharmacokinetics of fedratinib (2-period crossover)
- Type: in vivo, human
- EXPERIMENTAL CONTEXT: human, plasma, po, 400 mg, Treatment 1B: single 400 mg oral, capsule contents dispersed in nutritional supplement; n = 26; read-out: AUC0–∞, geometric mean (statistical analysis)
RECORDED METRIC: AUC(0-inf) (ng·h/mL)
The response must be a number in ng·h/mL with no trailing unit.

Asked: Param item = `Cc1cnc(Nc2ccc(OCCN3CCCC3)cc2)nc1Nc1cccc(S(=O)(=O)NC(C)(C)C)c1` ; retrieve measured AUC(0-inf).
Given back: 22700

---

- TEST: Phase 1 relative bioavailability study part 1: plasma pharmacokinetics of fedratinib (2-period crossover)
- Format: in vivo, human
- EXPERIMENTAL CONTEXT: human, plasma, po, 400 mg, Treatment 1A: single 400 mg oral, 4 × 100-mg intact capsules with nutritional supplement; n = 27; read-out: Cmax, geometric mean (Geo. %CV)
RECORDED METRIC: Cmax (ng/mL)
The response must be a number in ng/mL with no trailing unit.

Asked: Param item = Cc1cnc(Nc2ccc(OCCN3CCCC3)cc2)nc1Nc1cccc(S(=O)(=O)NC(C)(C)C)c1 [fedratinib] ; retrieve measured Cmax.
Given back: 1320
